- Test system: M14
- testSummary: NCI tumour cell line growth inhibition, 48 h
Activity calls are given as the source filed them. Cut-off read from the data, not from the text of the source: active = GI50 up to about 1.1 µM and inactive = higher.
endpointLabel: GI50

molecule	GI50
Cc1ccn2c(CCc3nnc4cc(C)ccn34)nnc2c1	> 100 µM (inactive)
N#Cc1c(-c2ccccc2)cc(Nc2ccc(F)cc2)n2c1nc1ccccc12	3.35 µM (inactive)
CC/C=C\C/C=C\C1CC(=O)NCCCNCCCCN1 (stereo unspecified)	48 µM (inactive)
Cc1c(Cl)ccc2c1NC(=O)C2(O)C(C(=O)c1ccccc1)c1ccccc1 (stereo unspecified)	> 100 µM (inactive)
COc1ccc2c(c1)N=C1CSC(c3cc([N+](=O)[O-])ccc3Cl)N1C2 (stereo unspecified)	27.5 µM (inactive)

`NCCCNc1ccc2c(c1)[n+]([O-])c1ccccc1[n+]2[O-]` yielded GI50 of 13.8 µM (inactive)

Data point: `N=c1oc2c(Cl)cc(Cl)cc2cc1C(=O)Nc1ccccn1` ; GI50 = 33.7 µM (inactive)

Field GI50 (entry O=C1C2=C(c3ccccc31)C(c1ccccc1)NC(S)=N2 (stereo unspecified) ) reads 55.1 µM (inactive)

Please fill in: GI50 reported for `CC(C)OP(=O)(OC(C)C)/C(=N/Nc1ccc([N+](=O)[O-])cc1)NCCO` = > 100 µM (inactive)

Quick note, GI50 for `COc1cc(NCC(C#N)C#N)ccc1/N=N/c1ccc(Cl)cc1` landed at 16.4 µM (inactive)

`CC(C)(C)CI` has a reported GI50 of 25 µM (inactive)

Reference for the values: ChEMBL document CHEMBL1201862
